// data source = PubChem BioAssay (NCATS)

# System: NIH3T3
# ASSAY_OVERVIEW: qHTS assay to identify novel small-molecules to repurpose for Merkel cell carcinoma treatment (AID 1296009); also: nearly all actives have a fitted effect of over 60% in size
# RUN_CONDITIONS: MCC and control cell lines, CellTiter-Glo viability, 72 h; at 44.8 µM (top of the series) unless noted
Inconclusive results are not listed. The source made the active and inactive calls. Calls follow the shape of the dose curve; as a rule, active = well fitted inhibition curve with a large enough effect; inconclusive = small, poorly fitted or top-dose-only effect; inactive = flat fitted curve, though single readings scatter. *1 amine or outer side, *2 acyl side, *3 side chain or, on linkers, in order; H or OH if unused. Where a SMILES comes first, the peptide text is derived from it. [ ]: non-standard residue; d: D form. X4 = CC(C)=CCc1cc(C(O)C(N[*:1])C(=O)[*:2])ccc1O
VALUE_KIND: outcome

Some solved entries appear below for comparison.
MOLECULE: C=C1C(=O)O[C@H](CCC)[C@H]1C(=O)O
STUDY_TARGET: NIH3T3
VALUE_KIND: outcome
MEASURED: inactive
//
MOLECULE: CC(C)=CCc1cc(C(O)C2NC(=O)CNC(=O)C(Cc3c[nH]c4ccccc34)NC(=O)C3CCCN3C(=O)CNC(=O)C(C(C)C)NC(=O)CNC2=O)ccc1O (stereo unspecified) (cyclo(G[X4]GVGPW); configuration not given here)
STUDY_TARGET: NIH3T3
VALUE_KIND: outcome
MEASURED: inactive [at 9.27 µM]
//
MOLECULE: CC(C)c1ccc(CO)cc1O[C@@H]1O[C@H](CO)[C@@H](O)[C@H](O)[C@H]1O
STUDY_TARGET: NIH3T3
VALUE_KIND: outcome
MEASURED: inactive
//
MOLECULE: Nc1nc2c(ncn2[C@@H]2O[C@H](CO)[C@@H](O)[C@H]2O)c(=O)[nH]1
STUDY_TARGET: NIH3T3
VALUE_KIND: outcome
MEASURED: inactive
//
MOLECULE: CC(C)C[C@H](CC(=O)NO)C(=O)N[C@H](C(=O)N[C@@H](C)C(=O)NCCN)C(C)(C)C
STUDY_TARGET: NIH3T3
VALUE_KIND: outcome
MEASURED: inactive [at 9.27 µM]
//
MOLECULE: COc1cc2c3c(cc4ccccc4c3c1O)NC2=O
STUDY_TARGET: NIH3T3
VALUE_KIND: outcome
MEASURED: inactive
//
MOLECULE: COc1ccc(CN2C(=O)C(=O)c3cc(S(=O)(=O)N4CCC[C@H]4COc4cccnc4)ccc32)cc1
STUDY_TARGET: NIH3T3
VALUE_KIND: outcome
MEASURED: inactive
//
MOLECULE: CCC(C)/C=C(C)/C=C/c1cc2c(cn1)C(=O)C(C)(OC(C)=O)C(O)=C2Cl (stereo unspecified)
STUDY_TARGET: NIH3T3
VALUE_KIND: outcome
MEASURED: inactive

Can you look up the measured outcome of CC1CCC2(OC1)OC1CC3C4CCC5C[C@@H](O[C@@H]6O[C@H](CO[C@@H]7OC[C@@H](O)[C@H](O)[C@H]7O)[C@H](O)[C@H](O)[C@H]6O)CC[C@]5(C)C4CC[C@]3(C)C1C2C (stereo partly specified) for me?
inactive [at 17.4 µM]

# lookup: outcome of CCN(Cc1cccnc1)C(=O)CN(c1ccc(OC)nc1)S(=O)(=O)c1ccccc1C
inactive

I have this molecule here, CN(C)CC1CCOC1(c1ccccc1)c1ccccc1 (stereo unspecified) , and I need its recorded outcome.
inactive [at 17.4 µM]

Bench note: what outcome did CC1CC(O)C2(OC1=O)OC1C(O)C3C4CCC5CC(OC6OC(CO)C(O)C(O)C6OC6OC(C)C(O)C(O)C6O)CCC5(C)C4CCC3(C)C1C2C (stereo unspecified) show?
inactive [at 17.4 µM]

Query: outcome; subject: C[C@H](NC(c1cccc2[nH]c(=O)c(=O)[nH]c12)P(=O)(O)O)c1ccc(Br)cc1 (stereo partly specified)
inactive

Which outcome reading was recorded for the molecule C=CC(C)(O)C(O)CC1C(C)(O)C(O)C(O)C2C(C)(C)CCCC21C (stereo unspecified) ?
inactive

Param item = Cn1nnc(-c2ccc(-c3ccc(N4C[C@H](CO)OC4=O)cc3F)cn2)n1 ; retrieve measured outcome.
inactive
